pIC50: −log10 of the molar value.
Ok so here's the combined literature set: pIC50 for UniProtKB P23458.

Use the examples below as a reference point.
q: Could you share which pIC50 value was measured for O=C1NCCCCOCc2cc(cc(Cl)c2N2CCOCC2)Nc2nccc(n2)-c2ccc1cc2 ?
a: 6.00 to 7.00

q: Same for CC(C)NCc1cc(C(=O)N2CCC(N3CC(CC#N)(n4cc(-c5ncnc6[nH]ccc56)cn4)C3)CC2)nc(C(F)(F)F)n1
a: ≥ 8.30

q: Same for N#CC1(C(=O)Nc2cccc3c(-c4ccnc(NC(=O)C5CC5)c4)c[nH]c23)CCOCC1
a: 6.00 to 7.00

Further cases:
q: Could you share which pIC50 value was measured for CN1CCN(Cc2ccc(-c3cccc4nc(NC(=O)C5CC5)nn34)cc2)CC1 ?
a: 5.46

---

pIC50: −log10 of the molar value.
Ok so here's the combined literature set: pIC50 for Tyrosine-protein kinase JAK1 (Homo sapiens, UniProt P23458).

q: Tyrosine-protein kinase JAK1 (Homo sapiens, UniProt P23458) / pIC50 / CC(=O)c1cnc(-c2cnc3[nH]ccc3c2N[C@@H]2CCCN(C(=O)CC#N)C2)o1 : value?
a: ≥ 8.00

q: Same for Cc1cnc(Nc2ccc(C3COC3)cc2)nc1N1CC(CC#N)(N2CCN(C)CC2)C1
a: > 7.30

q: Same for CCn1nc(C(=O)NCCC(F)(F)F)c2c1CCN(c1ncnc3[nH]ccc13)C2
a: 6.30 to 7.00

q: Same for O=C1NCCCCCNc2nc(ncc2F)Nc2cc(cnc2F)-c2ccc1cc2
a: 5.00 to 6.00

Further cases:
q: Tyrosine-protein kinase JAK1 (Homo sapiens, UniProt P23458) / pIC50 / N#CCC1(n2cc(-c3ncnc4[nH]ccc34)cn2)CN(C2CCN(C(=O)OCc3ccc(F)c(F)c3)CC2)C1 : value?
a: 7.70 to 8.30

q: Same for COc1ccc(C(=O)Nc2cccc(C(F)(F)F)c2)cc1-c1ccc2c(c1)[nH]c1ncncc12
a: ≥ 6.30

q: Same for CCCS(=O)(=O)N[C@H]1C[C@@H](Nc2c(-c3nnco3)cnc3[nH]ccc23)C1
a: 7.00 to 8.00

q: Same for N#CCC(=O)N1CCC[C@@H](Nc2c(-c3cccc(N)n3)cnc3[nH]ccc23)C1
a: ≥ 8.00

---

Ok so here's the combined literature set: pIC50 for Tyrosine-protein kinase JAK1 (Homo sapiens).
pIC50: −log10 of the molar value.

Use the examples below as a reference point.
q: Could you share which pIC50 value was measured for N#CCC1(n2cc(-c3ncnc4[nH]ccc34)cn2)CN(C2CCN(S(=O)(=O)c3cccc(C#N)c3)CC2)C1 ?
a: 7.52 to 7.70

q: Same for N#CCC(=O)N1CCC[C@@H](Nc2c(C(=O)OCC3CC3)cnc3[nH]ccc23)C1
a: ≥ 8.00

q: Same for CCS(=O)(=O)N1CC(CC#N)(n2cc(-c3nc(Nc4ccc(C#N)nc4)nc4ccsc34)cn2)C1
a: < 6.00

// moving on: another record for pIC50
q: Could you share which pIC50 value was measured for O=C(NC[C@@H]1CC[C@H]1O)c1noc2c1CN(c1ncnc3[nH]ccc13)CC2 (relative stereo) ?
a: 5.70 to 6.30

---

Ok so here's the combined literature set: pIC50 for Tyrosine-protein kinase JAK1 (Homo sapiens, UniProt P23458).
pIC50: −log10 of the molar value.

q: Could you share which pIC50 value was measured for CC(C)NC(=O)c1cc(Cl)c(N2CC(CC#N)(n3cc(-c4ncnc5[nH]ccc45)cn3)C2)cc1F ?
a: > 8.00

Further cases:
q: Could you share which pIC50 value was measured for CC[C@H](Cn1ccc2cnc(Nc3cnn(CC(=O)O[C@@H]4C[C@@H](C(=O)OC(C)C)N(C)C4)c3)nc21)C(C)C ?
a: > 7.00

q: Same for CN(c1ncnc2[nH]ccc12)C1CCC2(CC1)CCN(C(=O)c1csc3ccccc13)CC2
a: 6.00 to 7.00

q: Same for COc1cnc(NC(=O)N2CCC3(CCC(N(C)c4ncnc5[nH]ccc45)CC3)CC2)cn1
a: 7.00 to 8.00

q: Same for O=C1NCCCCOCc2cccc(c2)Nc2ncc(Cl)c(n2)-c2ccc1cc2Cl
a: 5.00 to 6.00

q: Same for N#CCC(=O)Nc1cccc(-c2cnc3ccccc3n2)c1
a: < 4.70

q: Same for CC(C)Oc1ccc2cc1COCC[C@@H](C)CNC(=O)c1ccc(c(N)c1)-c1ccnc(n1)N2
a: 6.00 to 7.00

q: Same for Cc1cc(Nc2nc(N[C@@H]3C[C@H]4CC[C@@H](C3)N4CCC#N)nc3cc(-c4ccccc4)ccc23)n[nH]1
a: 9.85
